The entries below are paired with their reported Relative Release, Without unlabeled hMBP(90-102), 64 μM.
Tested on: HLA-DR1 molecules
methodDescription: release of biotin-labeled hMBP(90-102) from HLA-DR1 without unlabeled antigenic peptide (assay I)
Assay type: binding, human
testParameters: Table 37; AE101 series compound 64 μM; no unlabeled hMBP(90-102)
No end group written: not given here.
measuredQuantity: Relative Release, Without unlabeled hMBP(90-102), 64 μM

>>> result("cyclic LRMKLPK (bridge (positions not given here); also: cyclic, ring type not given here) [AE381, “head-to-tail” cyclization from the amino-terminus to the carboxyl-terminus of AE114]")
0.5
>>> result("YRMKLPKSAK [AE108]")
0.31
>>> result("Ac-LR L KLPK-NH2 (Ac-LRLKLPK-NH2; not fully specified; printed as Ac-LR L KLPK-NH2) [AE206]")
0.08
>>> result("Ac-LRMK Y PK-NH2 (Ac-LRMKYPK-NH2; not fully specified; printed as Ac-LRMK Y PK-NH2) [AE235]")
0.81
